- Test system: IKK-beta
- Construct: gene IKBKB
- condition parameters: concentration: 1 μM,replicates: in singlicate; n = 1;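 also: KINOMEscan kinase panel screen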
endpoint: %Inh

For orientation, consider the following solved cases.
# smiles string, assayed system, measured value
rows = [
    ("Cc1ccc2c(-c3ccncc3)c(-c3ccc(F)cc3)nn2c1.Cl", "IKK-beta", "0%"),
    ("Cc1n[nH]c2ccc(-c3cc(OC[C@@H](N)Cc4ccccc4)cnc3-c3ccoc3)cc12.O=C(O)C(F)(F)F.O=C(O)C(F)(F)F", "IKK-beta", "0%"),
    ("CCN(CC)CCOc1ccc(Nc2ncc3cc(-c4c(Cl)cccc4Cl)c(=O)n(C)c3n2)cc1", "IKK-beta", "0%"),
]

Moving on to the next compound.
Exercise: Could you tell me which %Inh is on file for C=CC(=O)Nc1cc2c(Nc3ccc(F)c(Cl)c3)ncnc2cc1OCCCN1CCOCC1 ?
Key: 0%

----------
- Test system: PIK3C2G
- condition parameters: concentration: 1 μM,replicates: in singlicate; n = 1
# key: entry, value: %Inh
Give just the number in %; leave the unit off.

# smiles string, %Inh, %
records = [
    ("Nc1nc(Nc2ccccc2)cc(-c2ccc3c(N)n[nH]c3c2)n1", 20),
    ("Cc1n[nH]c2ccc(-c3cc(OC[C@@H](N)Cc4ccccc4)cnc3-c3ccoc3)cc12.O=C(O)C(F)(F)F.O=C(O)C(F)(F)F", 0),
    ("Cc1ccc2c(-c3ccncc3)c(-c3ccc(F)cc3)nn2c1.Cl", 0),
    ("Cl.Cl.NC[C@H](Cc1ccc(C(F)(F)F)cc1)NC(=O)c1cc(Br)c(-c2ccnc3[nH]ccc23)s1", 61),
]

Next up:
Exercise: Suppose we examine the compound Cc1cc(C(=O)Nc2ccc(Oc3ccc4nc(NC(=O)C5CC5)cn4n3)cc2)nn1-c1ccccc1 ; what %Inh value has been reported?
Key: 2

----------
Below, each entry is listed with its recorded %Inh.
- Tested on: TRKB
- condition parameters: concentration: 1 μM,replicates: in singlicate; n = 1
The reply should be a number in %, with the unit left off.

Solved entries:
# molecule, assayed system, %Inh / %
measured = [
    ("COc1ccc(C[C@@H](CN)NC(=O)c2cc(Br)c(-c3ccnc4[nH]ccc34)s2)cc1.Cl.Cl [GSK1389063]", "TRKB", 90.8),
    ("Cc1occc1-c1nc(N)c(OC[C@@H](N)Cc2c[nH]c3ccccc23)cc1-c1cc2c(C)n[nH]c2cn1 [GSK1660450]", "TRKB", 0),
    ("C[C@H]1Oc2cc(cnc2N)-c2c(nn(C)c2C#N)CN(C)C(=O)c2ccc(F)cc21", "TRKB", 93.4),
    ("CCn1c(-c2nonc2N)nc2c(C#CC(C)(C)O)nc(OCCN)cc21.Cl.Cl [GSK902056]", "TRKB", 0),
    ("CC(C)N1C(=O)Cc2cc(Nc3ncc(C(F)(F)F)c(NCc4cccc(S(C)(=O)=O)c4)n3)ccc21", "TRKB", 84),
    ("Cl.Oc1cc(-c2nc(-c3ccccc3)[nH]c2-c2ccncc2)ccc1Cl [SB-386023]", "TRKB", 6),
    ("Cc1cc2cn[nH]c2cc1-c1cccc2c(N)c(C(N)=O)nnc12", "TRKB", 66),
    ("NC(=O)c1cc(-c2ccccc2)cc2c(C3CCNCC3)c[nH]c12 [GSK301362]", "TRKB", 0),
    ("CCN(CC)CCOc1ccc(Nc2ncc3cc(-c4c(Cl)cccc4Cl)c(=O)n(C)c3n2)cc1 [SB-601273]", "TRKB", 43),
    ("O=C(NCCNc1ccnc(NCc2ccc(F)cc2)n1)c1cc2ccccc2s1 [GSK1379944]", "TRKB", 0),
]

Exercise: // returns reported %Inh for input CN(C)CC(O)COc1ccc(Nc2nccc(-c3cnn4nc(N5CCOCC5)ccc34)n2)cc1 (stereo not drawn) [GW767488]
Key: 31

Exercise: Follow-up entry: Cl.Cl.NC[C@H](CC1CCCCC1)NC(=O)c1cc(Br)c(-c2ccnc3[nH]ccc23)s1 [GSK1581427]
Key: 64

Exercise: Please answer likewise for C=CC(=O)Nc1cc2c(Nc3ccc(F)c(Cl)c3)ncnc2cc1OCCCN1CCOCC1 [GW781483]
Key: 4

Exercise: Again, but for Cl.Cl.NC[C@H](Cc1ccc(C(F)(F)F)cc1)NC(=O)c1cc(Br)c(-c2ccnc3[nH]ccc23)s1 [GSK1487252]
Key: 67

Exercise: Check Cc1ccc(-n2nc(C(C)(C)C)cc2NC(=O)Nc2ccc(OCCN3CCOCC3)c3ccccc23)cc1 [GW839464] too.
Key: 70

Exercise: Now try Cc1cc(C(=O)Nc2ccc(Oc3ccc4nc(NC(=O)C5CC5)cn4n3)cc2)nn1-c1ccccc1 .
Key: 64

Exercise: Please do the same for C[C@@H](Oc1cc(-c2cnn(C3CCNCC3)c2)cnc1N)c1c(Cl)ccc(F)c1Cl as well.
Key: 99.7

Exercise: Then this molecule: CC(C)Nc1cc(-c2ccc3c(N)n[nH]c3c2)nc(N)n1 [GSK2221681]
Key: 0

----------
- System: DAPK1
- condition parameters: concentration: 1 μM,replicates: in singlicate; n = 1
endpoint: %Inh (%)
// note: answer is a bare numeric in %

Exercise: Query the reported %Inh for DAPK1; item: CC(C)Nc1cc(-c2ccc3c(N)n[nH]c3c2)nc(N)n1
Key: 30

----------
- Tested on: ERBB2
- condition parameters: concentration: 1 μM,replicates: in singlicate; n = 1
The following compounds are shown together with reported %Inh values.

Please review the following examples before continuing.
# compound, %Inh
data = [
    ("Cc1cc(C(=O)Nc2ccc(Oc3ccc4nc(NC(=O)C5CC5)cn4n3)cc2)nn1-c1ccccc1", "19%"),
    ("CN(C)CC(O)COc1ccc(Nc2nccc(-c3cnn4nc(N5CCOCC5)ccc34)n2)cc1 (centres unmarked)", "5%"),
    ("CC(C)Nc1cc(-c2ccc3c(N)n[nH]c3c2)nc(N)n1", "8%"),
    ("Cc1n[nH]c2ccc(-c3cc(OC[C@@H](N)Cc4ccccc4)cnc3-c3ccoc3)cc12.O=C(O)C(F)(F)F.O=C(O)C(F)(F)F", "77%"),
]

Okay, now this compound:
Exercise: Item under review: Cc1cc2cn[nH]c2cc1-c1cccc2c(N)c(C(N)=O)nnc12 . Reported %Inh?
Key: 14%

----------
- System: LTK
- condition parameters: concentration: 1 μM,replicates: in singlicate; n = 1
endpoint: %Inh (%)
# output: bare number, implied unit %

Reference set, count: 5
# compound, reading unit, %Inh
records = [
    ("C[C@H]1Oc2cc(cnc2N)-c2c(nn(C)c2C#N)CN(C)C(=O)c2ccc(F)cc21", "%", 98.1),
    ("Cl.Cl.NC[C@H](CC1CCCCC1)NC(=O)c1cc(Br)c(-c2ccnc3[nH]ccc23)s1 [GSK1581427]", "%", 0),
    ("CN(C)CC(O)COc1ccc(Nc2nccc(-c3cnn4nc(N5CCOCC5)ccc34)n2)cc1 (stereo not drawn) [GW767488]", "%", 0),
    ("CNC(=O)c1ccccc1Sc1ccc2c(/C=C/c3ccccn3)n[nH]c2c1", "%", 0),
    ("CC(C)N1C(=O)Cc2cc(Nc3ncc(C(F)(F)F)c(NCc4cccc(S(C)(=O)=O)c4)n3)ccc21", "%", 0),
]

Exercise: Tell me the measured %Inh of O=C(NCCCN1CCOC1=O)c1cnc(NCc2cc(Cl)ccc2Cl)nc1NC1CCCC1 , please.
Key: 8

Exercise: Can you handle C=CC(=O)Nc1cc2c(Nc3ccc(F)c(Cl)c3)ncnc2cc1OCCCN1CCOCC1 [GW781483] next?
Key: 17

Exercise: Consider next the compound Cl.Oc1cc(-c2nc(-c3ccccc3)[nH]c2-c2ccncc2)ccc1Cl [SB-386023] in the same way.
Key: 11

Exercise: For Cl.Cl.NC[C@H](Cc1ccc(C(F)(F)F)cc1)NC(=O)c1cc(Br)c(-c2ccnc3[nH]ccc23)s1 [GSK1487252] then?
Key: 0

----------
- Tested on: PAK1
- condition parameters: concentration: 1 μM,replicates: in singlicate; n = 1
endpoint: %Inh (%)
Could you give me the number in %? Just the number is fine.

# compound, assayed system, %Inh (%)
measured = [
    ("Cc1cc(C(=O)Nc2ccc(Oc3ccc4nc(NC(=O)C5CC5)cn4n3)cc2)nn1-c1ccccc1", "PAK1", 0),
    ("CN(C)CCOc1ccc(-c2cc(-c3c[nH]nc3-c3ccccn3)ccn2)cc1", "PAK1", 0),
]

Exercise: I'm curious: which %Inh was measured for Cc1ccc2c(-c3ccncc3)c(-c3ccc(F)cc3)nn2c1.Cl tested on PAK1?
Key: 29

Exercise: Record: CNC(=O)c1ccccc1Sc1ccc2c(/C=C/c3ccccn3)n[nH]c2c1
Key: 9

Exercise: And what about the compound COc1ccc(C[C@@H](CN)NC(=O)c2cc(Br)c(-c3ccnc4[nH]ccc34)s2)cc1.Cl.Cl ?
Key: 78

Exercise: Similarly, CCN(CC)CCOc1ccc(Nc2ncc3cc(-c4c(Cl)cccc4Cl)c(=O)n(C)c3n2)cc1 ?
Key: 82

Exercise: Try the compound Nc1nc(Nc2ccccc2)cc(-c2ccc3c(N)n[nH]c3c2)n1
Key: 27

Exercise: Request: Cl.Cl.NC[C@H](CC1CCCCC1)NC(=O)c1cc(Br)c(-c2ccnc3[nH]ccc23)s1
Key: 38

Exercise: # repeat for C[C@@H]1CCN(C(=O)CC#N)C[C@@H]1N(C)c1ncnc2[nH]ccc12
Key: 0

Exercise: Please answer likewise for Cc1occc1-c1nc(N)c(OC[C@@H](N)Cc2c[nH]c3ccccc23)cc1-c1cc2c(C)n[nH]c2cn1
Key: 97.8

Exercise: Now this one: C=CC(=O)Nc1cc2c(Nc3ccc(F)c(Cl)c3)ncnc2cc1OCCCN1CCOCC1
Key: 0
